Reference source for all entries: PubChem BioAssay (EPA / NIEHS)

Read-out: Cytochrome P450 3A7 (Homo sapiens) (UniProt P24462)
Sequence (P24462 whole entry, looked up): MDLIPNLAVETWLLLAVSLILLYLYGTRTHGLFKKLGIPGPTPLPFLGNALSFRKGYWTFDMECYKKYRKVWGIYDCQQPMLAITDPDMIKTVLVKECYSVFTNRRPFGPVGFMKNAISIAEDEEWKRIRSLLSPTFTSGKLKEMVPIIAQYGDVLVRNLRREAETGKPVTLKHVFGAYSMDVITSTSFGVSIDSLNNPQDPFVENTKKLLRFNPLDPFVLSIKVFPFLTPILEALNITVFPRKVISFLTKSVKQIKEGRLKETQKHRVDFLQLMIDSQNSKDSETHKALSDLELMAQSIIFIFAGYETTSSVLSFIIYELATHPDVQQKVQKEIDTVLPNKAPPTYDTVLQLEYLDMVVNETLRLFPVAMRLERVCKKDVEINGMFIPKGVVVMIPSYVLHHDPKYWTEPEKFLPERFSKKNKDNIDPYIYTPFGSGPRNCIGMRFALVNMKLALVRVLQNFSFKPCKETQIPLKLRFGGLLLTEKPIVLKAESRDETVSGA
assay remarks: LTEA_HepaRG_CYP3A7: Life Technologies and Expression Analysis (LTEA) Assay for CYP3A7 using HepaRG (AID 2283492)
experimental conditions: mRNA level, 48 h; actives raise or lower the signal
Activity calls are given as the source filed them. How the source made its calls: active means hit-call score of the fitted dose curve at least 0.9, where 1 is the maximum; inactive means score below 0.9.
Form entry, call: pick from YES (active), NO (inactive)

# example entries with known answers
>>> group("ClCCOCCCl")
"NO"
>>> group("OCCCBr")
"NO"
>>> group("Nc1ccc(Oc2ccc(N)cc2)cc1")
"NO"

Query: Assay outcome for Nc1ccc(Cc2ccc(N)cc2)cc1 : what was it?
Reply: YES

Query: What is the recorded call for this compound in the test? Cc1ccc([N+](=O)[O-])cc1
Reply: NO

Query: Could you please tell me the result logged for N#CC(Br)(Br)C(N)=O in this assay?
Reply: NO

Query: Status in this test for CN(C)c1ccccc1 ?
Reply: NO

Query: For this compound, state the assay outcome: C[N+](C)(C)CC1CO1 (centres undefined)
Reply: NO

Query: Kindly provide the recorded test outcome for the following compound: O=C1CCCO1
Reply: NO

* * *

assay remarks: CCTE_Mundy_HCI_Cortical_Synap_Neur_Matur_SynapseCount: CCTE's Synaptogenesis and Neurite Maturation Assay in rat cortical cells for Synapse Count, Mundy Lab (AID 2284218)
Activity calls are given as the source filed them. How the source made its calls: active means hit-call score of the fitted dose curve at least 0.9, where 1 is the maximum; inactive means score below 0.9.
assay metric: AC50

// below: answered compounds
>>> observed_measurement("COC(=O)Nc1nc2ccccc2[nH]1")
"inactive"
>>> observed_measurement("CN(C)[C@@H]1C(=O)C(C(N)=O)=C(O)[C@@]2(O)C(=O)C3=C(O)c4c(O)cccc4[C@@](C)(O)[C@H]3C[C@@H]12")
"inactive"
>>> observed_measurement("OCCOCCO")
"inactive"
>>> observed_measurement("COP(=S)(OC)SCN1C(=O)c2ccccc2C1=O")
"inactive"

Would you kindly look at the next entry?
Query: Tell me AC50 reported for CC(C)COC(=O)c1ccccc1C(=O)OCC(C)C
Reply: 79.6 µM (active)

* * *

assay remarks: BSK_SAg_Proliferation: Cell Proliferation Assessment in the BioMAP Diversity Plus: SAg Assay (AID 2283095);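 further: relative cell number as total protein by SRB absorbance in sub-confluent culture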
experimental conditions: primary human HUVEC with PBMC
Calls of active or inactive are those of the source. Rule for the calls: active = hit-call score of the fitted dose curve at least 0.9, where 1 is the maximum; inactive = score below 0.9.
assay metric: AC50

// below: answered compounds
>>> observed_measurement("C[C@]12C=CC3=C4CCC(=O)C=C4CC[C@H]3[C@@H]1CC[C@@H]2O")
"inactive"
>>> observed_measurement("C[N+](C)(C)CC1CO1 (stereo not given)")
"inactive"
>>> observed_measurement("Nc1ccc(Cl)cc1N")
"inactive"
>>> observed_measurement("CCC12COCN1COC2")
"inactive"
>>> observed_measurement("O=[N+]([O-])c1ccc(Oc2ccc(Cl)cc2Cl)cc1")
"32 µM (active)"

Query: # return recorded AC50 for input C=CCc1ccc2c(c1)OCO2
Reply: inactive

Query: Determine from records and report AC50 for ClC1=C(Cl)C2(Cl)C3C(Cl)C=CC3C1(Cl)C2(Cl)Cl (stereo not given)
Reply: 10.9 µM (active)

Query: Return value of AC50 for input c1ccc2c(c1)oc1ccccc12 , no commentary.
Reply: inactive

Query: Look up and state reported AC50 for O=C1CCCO1
Reply: inactive

Query: Could you please provide reported AC50 for CC(C)(C)OOC(=O)c1ccccc1 ? Thanks!
Reply: inactive

Query: Identify measured AC50 corresponding to Clc1ccccc1Cl
Reply: inactive

Query: For the compound CC(C)COC(=O)c1ccccc1C(=O)OCC(C)C , give its measured AC50 value.
Reply: 30.3 µM (active)

Query: Assign AC50 to the following record: c1ccc2c(c1)-c1cccc3cccc-2c13
Reply: inactive

Query: Note down AC50 recorded for c1ccc(NNc2ccccc2)cc1
Reply: inactive

Query: Give the value of AC50 reported for the following: CCC(C)c1ccc(O)cc1 (stereo not given)
Reply: inactive

* * *

Test system: turtle Estrogen Receptor (ERa), gene 101933533
assay remarks: ATG_trERa_XSP2: Attagene TRANS-FACTORIAL Multi-Species (XSP2) HepG2 Assay for turtle Estrogen Receptor (ERa) (AID 2283812);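 further: human HepG2 liver cells transiently expressing turtle ERa-Gal4 chimeric receptor; reporter mRNA from GAL4-UAS units measured by RT-PCR and capillary electrophoresis; actives raise reporter signal above DMSO so AC50 reflects agonist activity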
Inconclusive results are not listed. The source made the active and inactive calls. Rule for the calls: active = hit-call score of the fitted dose curve at least 0.9, where 1 is the maximum; inconclusive = response in the unintended direction; inactive = score below 0.9.
assay metric: AC50

Would you please look over these solved cases?
>>> observed_measurement("C[C@]12C=CC3=C4CCC(=O)C=C4CC[C@H]3[C@@H]1CC[C@@H]2O")
"inactive"
>>> observed_measurement("CCCCOC(=O)c1ccccc1C(=O)OCc1ccccc1")
"61.1 µM (active)"
>>> observed_measurement("c1ccc2c(c1)-c1cccc3cccc-2c13")
"inactive"
>>> observed_measurement("CCCCCOC(=O)c1ccccc1C(=O)OCCCCC")
"inactive"

Kindly review the next compound as well.
Query: Identify the reported AC50 for the following entry. O=[N+]([O-])c1ccc(Oc2ccc(Cl)cc2Cl)cc1
Reply: inactive

* * *

assay remarks: ATG_NFI_CIS: Attagene CIS-FACTORIAL HepG2 Assay for human Nuclear Factor I (NFI) (AID 2282989)
experimental conditions: HepG2 cis-regulatory reporter, NFI response element transcription; actives raise or lower the signal
Calls of active or inactive are those of the source. The calls were made as follows: active = hit-call score of the fitted dose curve at least 0.9, where 1 is the maximum; inactive = score below 0.9.
Lab note: assign the record to one of T for active, F for inactive

Worked cases, answers included:
>>> group("Cc1ccc(N)cc1")
"F"
>>> group("[Cl-].[Cl-].[Hg+2]")
"F"
>>> group("CCN(CC)CCO")
"F"

Now consider the entry below.
Query: Look up the recorded call for O=[N+]([O-])C(Br)(CO)CO in this test.
Reply: F

* * *

assay remarks: Tanguay_ZF_120hpf_PFIN_legacy: (Legacy) Oregon State University Tanguay Lab 120 Hour Post-fertilization zebrafish Assay for Pectoral Fin Malformation (AID 2283648);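 further: each larva judged yes or no for fin defect by brightfield with dead larvae skipped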
Results filed as inconclusive are left out. The source made the active and inactive calls. Rule for the calls: active = hit-call score of the fitted dose curve at least 0.9, where 1 is the maximum; inconclusive = response in the unintended direction; inactive = score below 0.9.
Select the matching outcome among True = active, False = inactive

Previously resolved entries follow.
>>> group("OCCCl")
"False"
>>> group("c1ccc2c(c1)-c1cccc3cccc-2c13")
"False"
>>> group("Nc1ccc(N=Nc2ccccc2)cc1")
"False"
>>> group("c1ccc(N=Nc2ccccc2)cc1")
"False"

Query: Give the logged outcome of this assay for the following molecule: Cc1ccc([N+](=O)[O-])cc1
Reply: False

Query: What outcome does the record of this test show for CC(C)(C)OOC(C)(C)CCC(C)(C)OOC(C)(C)C ?
Reply: False

* * *

assay remarks: APR_HepG2_P-H2AX_24hr: Apredica 24-hour HepG2 Assay for H2AX Phosphorylation (AID 2282920)
experimental conditions: high-content imaging, actives raise or lower the signal
Experimental: APR_HepG2_24hr is a cell-based, multiplexed-readout assay that uses HepG2, a human liver cell line, with measurements taken at 24 hours after chemical dosing in a 384-well plate.APR_HepG2_P-H2AX_24hr is one of 10 assay component(s) measured or calculated from the APR_HepG2_24hr assay. […] This assay endpoint, APR_HepG2_P-H2AX_24hr, was analyzed with bidirectional fitting relative to DMSO as the negative control and baseline of activity. […]
Active and inactive are the calls of the source. Rule for the calls: active = hit-call score of the fitted dose curve at least 0.9, where 1 is the maximum; inactive = score below 0.9.
Outcome (select one): active, inactive

Use the examples below as a reference point.
>>> group("Nc1ccc(Cl)cc1N")
"active"
>>> group("Clc1ccc(Cl)c(Cl)c1")
"inactive"
>>> group("CC(C)(OOC(C)(C)c1ccccc1)c1ccccc1")
"inactive"
>>> group("Nc1ccc(N=Nc2ccccc2)cc1")
"inactive"
>>> group("Oc1ccc2ccc3cccc4ccc1c2c34")
"active"

Query: Just curious, what result did CNC(=O)Oc1cccc2c1OC(C)(C)C2 get here?
Reply: inactive

Query: Write down the call the test reported for this compound. Item: Nc1ccc([N+](=O)[O-])cc1
Reply: inactive

Query: Would you mind telling me which call this test gave c1ccc2c(c1)-c1cccc3cccc-2c13 ?
Reply: inactive

Query: Per the records of this test, what outcome belongs to ClC1=C(Cl)C2(Cl)C3C(Cl)C=CC3C1(Cl)C2(Cl)Cl (configuration not stated) ?
Reply: active

Query: Kindly provide the recorded test outcome for the following compound: Nc1ccc(Oc2ccc(N)cc2)cc1
Reply: inactive

Query: Which outcome was entered for the compound CCCCCCCCOC(=O)c1ccc(C(=O)OCCCCCCCC)c(C(=O)OCCCCCCCC)c1 in this test?
Reply: inactive

* * *

Test system: guinea pig Dopamine Transporter (DAT), gene 100714898
assay remarks: NVS_TR_gDAT: NovaScreen (NVS) Transporter Assay for guinea pig Dopamine Transporter (DAT) (AID 2283369);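 further: active compounds lower bound radioligand signal relative to DMSO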
Results filed as inconclusive are left out. Calls of active or inactive are those of the source. The calls were made as follows: active = hit-call score of the fitted dose curve at least 0.9, where 1 is the maximum; inconclusive = response in the unintended direction; inactive = score below 0.9.
Write down one outcome, taken from y for active, n for inactive

Sample answers from the record:
>>> group("O=C(Oc1ccc(Br)cc1)N1CCN2CCC1CC2")
"y"
>>> group("O=C(N[C@H](c1ccccc1)[C@@H]1CN2CCC1CC2)c1c(Cl)ccc(C(F)(F)F)c1Cl")
"y"
>>> group("CCC[CH2][Sn]([Cl])([CH2]CCC)[CH2]CCC")
"y"

Query: I would be grateful if you could indicate the recorded call for Nc1ccc(Cc2ccc(N)cc2)cc1 .
Reply: n

Query: Which outcome did this test record for the molecule CC(C)N(Cc1ccccc1)C(=O)C(C)(C)C ?
Reply: y

Query: Field: outcome | Entry: CC(C)(C)C(O)(CCc1ccc(Cl)cc1)Cn1cncn1 (centres undefined)
Reply: y

Query: GET /call?item= CCOC(=O)[C@]1(c2ccccc2)Oc2ccccc2[C@@H]1N returns the recorded outcome of this test.
Reply: y

Query: Could you check what this test reported for CCC(C)c1ccc(O)cc1 (centres undefined) ?
Reply: y

Query: recorded result category for O=C(Nc1ccccc1)c1ccccc1I in this test
Reply: y
